Target: T1, human calcitonin (a) receptor (human, UniProt P30988 25-474)
T1 sequence (looked up): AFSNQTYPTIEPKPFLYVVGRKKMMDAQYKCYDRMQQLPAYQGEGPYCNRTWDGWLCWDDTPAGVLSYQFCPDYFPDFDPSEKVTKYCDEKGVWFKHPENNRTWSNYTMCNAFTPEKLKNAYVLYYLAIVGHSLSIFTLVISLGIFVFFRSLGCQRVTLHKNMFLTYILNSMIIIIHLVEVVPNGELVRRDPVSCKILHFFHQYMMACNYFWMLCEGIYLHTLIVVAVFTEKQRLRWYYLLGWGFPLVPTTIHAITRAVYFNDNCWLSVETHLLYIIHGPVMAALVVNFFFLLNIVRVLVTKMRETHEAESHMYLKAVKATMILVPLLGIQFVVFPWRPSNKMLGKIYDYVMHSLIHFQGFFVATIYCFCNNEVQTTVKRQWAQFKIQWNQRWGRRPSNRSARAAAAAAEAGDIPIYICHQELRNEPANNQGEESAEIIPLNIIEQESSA
Assay: cell-based or functional assay
Starred links: 1 amine or outer side, 2 acyl side, 3 side chain; linkers in the order of their positions; H or OH if unused. Positions of bridges follow the written chain, without caps; N, C: chain ends. Groups on a side chain read outwards from the residue. No end group written: not given here. *: point of attachment. 19‑carboxyheptadecanoyl = not defined here; C18 diacid = O=C(O)CCCCCCCCCCCCCCCCC(=O)*; γGlu = O=C(O)[C@H](CCC(=O)[*:2])N[*:1]; AEEA = NCCOCCOCC(=O)O
What CTa receptor human EC50 was measured for each of the following?
Note: unit nM is implicit; provide only the numeric part.

Sample {19‑carboxyheptadecanoyl-γGlu-AEEA-AEEA}-CNTATCATQRLAEFLHHSSNNFGPILPPTNVGSNTY-NH2 (disulfide 1-6; reading uncertain; also: printed as N-alpha-[2-(2-{2-[2-(2-{2-[(S)-4-Carboxy-4-(19-carboxyheptadecanoylamino)butyrylamino]ethoxy}ethoxy)acetylamino]ethoxy}ethoxy)acetyl]-[des1,Glu14,His17]-pramlintide) — what was its CTa receptor human EC50?
0.672

Sample KCNTATCATQRLAEFLVRSSK([AEEA-AEEA-γGlu-19‑carboxyheptadecanoyl])NFGPILSRTNVGSRTY-NH2 (disulfide 2-7) — what was its CTa receptor human EC50?
0.732

Sample {C18 diacid-γGlu}-HCNTATCATQRLAEFLHHSSNNFGPILPPTNVGSNTY-NH2 (disulfide 2-7; not fully specified; printed as N-alpha-[(S)-4-Carboxy-4-(17-carboxyheptadecanoylamino)butyryl]-[His1,Glu14,His17]-pramlintide) [N-alpha-[(S)-4-Carboxy-4-(17-carboxyheptadecanoylamino)butyryl]-[His1,Glu14,His17]-pramlintide] — what was its CTa receptor human EC50?
0.112
